target: human MCH receptor expressed from the open reading frame cDNA SEQ. ID. NO. 1 in 293-AEQ17 cells (human, UniProt Q99705 1-353); assay: cell-based or functional assay
Sequence (Q99705 whole entry): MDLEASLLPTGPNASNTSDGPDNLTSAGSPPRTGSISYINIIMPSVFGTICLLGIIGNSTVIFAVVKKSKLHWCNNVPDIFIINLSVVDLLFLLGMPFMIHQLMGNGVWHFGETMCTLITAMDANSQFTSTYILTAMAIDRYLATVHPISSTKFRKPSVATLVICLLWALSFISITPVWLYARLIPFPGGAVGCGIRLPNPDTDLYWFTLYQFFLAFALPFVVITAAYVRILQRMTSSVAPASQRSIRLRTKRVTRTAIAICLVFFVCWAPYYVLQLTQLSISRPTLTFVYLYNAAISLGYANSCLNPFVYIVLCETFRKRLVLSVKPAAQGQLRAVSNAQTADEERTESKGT
Bridges are numbered along the chain shown (N, C = ends). Where no end group is shown, it is not given here.
Recorded Activation % for the following binders
Numbers only here, please. The scale is %.

Below: 3 binders and their reported Activation %.
Ac-ACMLGRVYRPC-NH2 (disulfide 2-11; SMILES CSCC[C@@H]1NC(=O)[C@@H](NC(=O)[C@H](C)NC(C)=O)CSSC[C@@H](C(N)=O)NC(=O)[C@@H]2CCCN2C(=O)[C@H](CCCNC(=N)N)NC(=O)[C@H](Cc2ccc(O)cc2)NC(=O)[C@H](C(C)C)NC(=O)[C@H](CCCNC(=N)N)NC(=O)CNC(=O)[C@H](CC(C)C)NC1=O, ID; NO; 7 peptide; MCH position numbering) [MCH analog SEQ. ID. NO. 31 (position 6: Ac-Ala)]	135
H-CMLGRVYRPC-NH2 (disulfide 1-10, ID; NO; 7 peptide; MCH position numbering) [MCH analog SEQ. ID. NO. 37 (position 6: H)]	120
ECMLGRVYRPC (Ac-Glu at position 6 (N-terminal acetyl); C-terminal amide, Cys-Cys disulfide as in SEQ. ID. NO. 7, ID; NO; 7 peptide; MCH position numbering) [MCH analog SEQ. ID. NO. 36 (position 6: Ac-Glu)]	113

input: // Activation % lookup, key: XCMLGRVYRPC (Ac-D-Nle at position 6; C-terminal amide, Cys-Cys disulfide as in SEQ. ID. NO. 7, ID; NO; 7 peptide; MCH position numbering) [MCH analog SEQ. ID. NO. 42 (position 6: Ac-D-Nle)]
output: 97

input: // repeat for PCMLGRVYRPC (Ac-Pro at position 6 (N-terminal acetyl); C-terminal amide, Cys-Cys disulfide as in SEQ. ID. NO. 7, ID; NO; 7 peptide; MCH position numbering) [MCH analog SEQ. ID. NO. 33 (position 6: Ac-Pro)] and report
output: 133

input: And for Ac-RCMLGRVYRPC-NH2 (disulfide 2-11 (inferred), Corresponds to MCH positions 6-16; also called ID; NO; 7 MCH analog) [truncated MCH analog SEQ. ID. NO. 7: Ac-Arg-Cys-Met-Leu-Gly-Arg-Val-Tyr-Arg-Pro-Cys-amide] ?
output: 99

input: Now try XCMLGRVYRPC (Ac-D-Asn at position 6; C-terminal amide, Cys-Cys disulfide as in SEQ. ID. NO. 7) [MCH analog SEQ. ID. NO. 44 (position 6: Ac-D-Asn)] .
output: 94

input: Item: XCMLGRVYRPC (Ac-D-Pro at position 6; C-terminal amide, Cys-Cys disulfide as in SEQ. ID. NO. 7) [MCH analog SEQ. ID. NO. 43 (position 6: Ac-D-Pro)]
output: 96

input: Let us now turn to DFDMLRCMLGRVYRPCWQV (disulfide 7-16) [mammalian MCH (SEQ. ID. NO. 11)]
output: 100

input: Then what about the binder XCMLGRVYRPC (Ac-Nle (acetyl-norleucine) at position 6; C-terminal amide, Cys-Cys disulfide as in SEQ. ID. NO. 7) [MCH analog SEQ. ID. NO. 32 (position 6: Ac-Nle)] ?
output: 107

input: Now give it for XCMLGRVYRPC (Ac-D-Glu at position 6; C-terminal amide, Cys-Cys disulfide as in SEQ. ID. NO. 7) [MCH analog SEQ. ID. NO. 46 (position 6: Ac-D-Glu)] too.
output: 85

input: Field entry: NCMLGRVYRPC (Ac-Asn at position 6 (N-terminal acetyl); C-terminal amide, Cys-Cys disulfide as in SEQ. ID. NO. 7, ID; NO; 7 peptide; MCH position numbering) [MCH analog SEQ. ID. NO. 34 (position 6: Ac-Asn)]
output: 96

input: // repeat for XCMLGRVYRPC (Ac-D-Ser at position 6; C-terminal amide, Cys-Cys disulfide as in SEQ. ID. NO. 7, ID; NO; 7 peptide; MCH position numbering) [MCH analog SEQ. ID. NO. 45 (position 6: Ac-D-Ser)] and report
output: 93

Data origin, for the record: patent US20030105278A1
